The measured values listed here are drawn from patent US12280179B2.

# assay-notes: Human clinical study, urethral strictures: paclitaxel in blood, urine, semen
# Format: in vivo
# study-conditions: human, semen; 30 days

>  <structure>
CC(=O)O[C@H]1C(=O)[C@@]2(C)[C@H]([C@H](OC(=O)c3ccccc3)[C@]3(O)C[C@H](OC(=O)[C@H](O)[C@@H](NC(=O)c4ccccc4)c4ccccc4)C(C)=C1C3(C)C)[C@]1(OC(C)=O)CO[C@@H]1C[C@@H]2O

>  <concentration at 30 days [ng/mL]>
1

$$$$

====

# assay-notes: BPH Preclinical Study 4: tissue pharmacokinetics of paclitaxel
# Format: in vivo, dog
# study-conditions: male, mongrel, dog, prostatic urethra, other: transurethral drug-coated balloon catheter, 6.8 mg; standard dose arm; 70 days

>  <structure>
CC(=O)O[C@H]1C(=O)[C@@]2(C)[C@H]([C@H](OC(=O)c3ccccc3)[C@]3(O)C[C@H](OC(=O)[C@H](O)[C@@H](NC(=O)c4ccccc4)c4ccccc4)C(C)=C1C3(C)C)[C@]1(OC(C)=O)CO[C@@H]1C[C@@H]2O

>  <concentration at 70 days (ng/g)>
4

$$$$

====

# assay-notes: Human clinical study, urethral strictures: paclitaxel in blood, urine, semen
# Assay type: in vivo
# study-conditions: human, urine; 30 days

>  <structure>
CC(=O)O[C@H]1C(=O)[C@@]2(C)[C@H]([C@H](OC(=O)c3ccccc3)[C@]3(O)C[C@H](OC(=O)[C@H](O)[C@@H](NC(=O)c4ccccc4)c4ccccc4)C(C)=C1C3(C)C)[C@]1(OC(C)=O)CO[C@@H]1C[C@@H]2O

>  <concentration at 30 days>
0.1 ng/mL

$$$$

====

# assay-notes: Human clinical study, BPH: paclitaxel in blood, urine, semen
# Type: in vivo
# study-conditions: male, human, semen, 2.4 μg of paclitaxel per millimeter squared; 14 days

>  <molecule>
CC(=O)O[C@H]1C(=O)[C@@]2(C)[C@H]([C@H](OC(=O)c3ccccc3)[C@]3(O)C[C@H](OC(=O)[C@H](O)[C@@H](NC(=O)c4ccccc4)c4ccccc4)C(C)=C1C3(C)C)[C@]1(OC(C)=O)CO[C@@H]1C[C@@H]2O [paclitaxel]

>  <concentration at 14 days (ng/mL)>
5.3

$$$$

====

# assay-notes: Human clinical study, BPH: paclitaxel in blood, urine, semen
# Type: in vivo
# study-conditions: male, human, urine, 2.4 μg of paclitaxel per millimeter squared; 4 days

>  <structure>
CC(=O)O[C@H]1C(=O)[C@@]2(C)[C@H]([C@H](OC(=O)c3ccccc3)[C@]3(O)C[C@H](OC(=O)[C@H](O)[C@@H](NC(=O)c4ccccc4)c4ccccc4)C(C)=C1C3(C)C)[C@]1(OC(C)=O)CO[C@@H]1C[C@@H]2O

>  <unit-abbrev>
ng/mL

>  <concentration at 4 days>
202

$$$$

====

# assay-notes: Human clinical study, urethral strictures: paclitaxel in blood, urine, semen
# Type: in vivo
# study-conditions: human, urine; 14 days

>  <structure>
CC(=O)O[C@H]1C(=O)[C@@]2(C)[C@H]([C@H](OC(=O)c3ccccc3)[C@]3(O)C[C@H](OC(=O)[C@H](O)[C@@H](NC(=O)c4ccccc4)c4ccccc4)C(C)=C1C3(C)C)[C@]1(OC(C)=O)CO[C@@H]1C[C@@H]2O

>  <concentration at 14 days [ng/mL]>
0.3

$$$$
